target: Beta-1,3-glucan synthase (Candida albicans); assay: In vitro inhibition of glucan synthase obtained from Candida albicans at a concentration of 10 ug/mL.
Numbered stars: 1 amine (or outer) side, 2 acyl side, 3 side chain; on linkers, the order of the positions; unused ones are H or OH. Bridge positions count the residues as written; N and C are the ends. Square brackets hold non-standard residues; d marks the D form. Peptide text beside a SMILES is read from it. * marks the point of attachment. Orn(4R-OH,5R-OH) = O=C([C@H](C[C@@H](O)[C@@H](O)N[*:3])N[*:1])[*:2]; hTyr(3S-OH,4S-OH) = N[C@H](C(=O)O)[C@H](O)[C@@H](O)c1ccc(O)cc1; Pro(3S-OH,4S-Me) = C[C@H]1CN[C@H](C(=O)O)[C@H]1O; X28 = CCCCOc1ccc(Oc2ccc(C(=O)*)cc2)cc1; X23 = O=C(CCCCCOc1ccc(-c2ccccc2)cc1)*; X19 = CCCCCCCCOCCOc1ccc(C(=O)*)cc1; Hyp = O=C(O)[C@@H]1C[C@@H](O)CN1
Known inhibition of a selection of compounds
Give the number; % is assumed, so skip it.

Here's what some known entries look like.
Please give the documented inhibition of C[C@@H](O)[C@@H]1NC(=O)[C@H]([C@H](O)[C@@H](O)c2ccc(O)cc2)NC(=O)[C@@H]2C[C@@H](O)CN2C(=O)[C@H]([C@@H](C)O)NC(=O)[C@@H](NC(=O)CCCCCOc2ccc(-c3ccccc3)cc2)C[C@@H](O)[C@@H](O)NC(=O)[C@@H]2[C@@H](O)[C@@H](C)CN2C1=O (X23-[Orn(4R-OH,5R-OH)]T[Hyp][hTyr(3S-OH,4S-OH)]T[Pro(3S-OH,4S-Me)]; lactam 1-C)
69.1

Please give the documented inhibition of CCCCOc1ccc(Oc2ccc(C(=O)N[C@H]3C[C@@H](O)[C@@H](O)NC(=O)[C@@H]4[C@@H](O)[C@@H](C)CN4C(=O)[C@H]([C@@H](C)O)NC(=O)[C@H]([C@H](O)[C@@H](O)c4ccc(O)cc4)NC(=O)[C@@H]4C[C@@H](O)CN4C(=O)[C@H]([C@@H](C)O)NC3=O)cc2)cc1 (X28-[Orn(4R-OH,5R-OH)]T[Hyp][hTyr(3S-OH,4S-OH)]T[Pro(3S-OH,4S-Me)]; lactam 1-C)
66.7

Please turn your attention to the following entry.
Please give the documented inhibition of CCCCCCCCOCCOc1ccc(C(=O)N[C@H]2C[C@@H](O)[C@@H](O)NC(=O)[C@@H]3[C@@H](O)[C@@H](C)CN3C(=O)[C@H]([C@@H](C)O)NC(=O)[C@H]([C@H](O)[C@@H](O)c3ccc(O)cc3)NC(=O)[C@@H]3C[C@@H](O)CN3C(=O)[C@H]([C@@H](C)O)NC2=O)cc1 (X19-[Orn(4R-OH,5R-OH)]T[Hyp][hTyr(3S-OH,4S-OH)]T[Pro(3S-OH,4S-Me)]; lactam 1-C)
54.8

Reference source: ChEMBL document CHEMBL1128519
